System: SW-620 colon
assay explanation: NCI tumour cell line growth inhibition, 48 h

compound	measured target	measurement units	bound sign	TGI
CC1(C)CC2=NO[Se]3=C2C(=NO3)C1	SW-620 colon	µM	=	12.3
O=[N+]([O-])c1ccc(/C=C/c2ccc(/C=C/c3ccc([N+](=O)[O-])cc3[N+](=O)[O-])cc2)c([N+](=O)[O-])c1	SW-620 colon	µM	>	100
N#CC1=C(N)Oc2c(ccc3ccccc23)C1c1cc2ccccc2n2nnnc12 (stereo not drawn)	SW-620 colon	µM	>	100
CC(C)(C)c1ccc(OCCOCCOc2ccc(C(C)(C)C)cc2S(N)(=O)=O)c(S(N)(=O)=O)c1	SW-620 colon	µM	>	100
CCOC(=O)C#Cc1c(C(=O)OCC)nnn1[C@@H]1O[C@H](COC)[C@@H](OC)[C@H]1OC	SW-620 colon	µM	=	4.06
C#CCCCCCC(=O)N[C@H]1C=C[C@@H]2/C=C(C)/C=C/[C@@H](C)[C@H]([C@H](C)[C@H](O)[C@@H](C)NC(C)=O)OC(=O)/C=C/C=C(C)\C=C\[C@]2(C)C1	SW-620 colon	µM	>	40
CC(C)CCCC(C)C1CCC2C3CC([N+](=O)[O-])=C4CC(O)CCC4(C)C3CCC12C (stereo not drawn)	SW-620 colon	µM	=	59.1
N#Cc1c(CC(=O)O)cc(=O)n2c1[nH]c1ccccc12	SW-620 colon	µM	>	100
O=C1c2ccccc2-c2c1c1c(O)cccc1n2Cc1ccccc1	SW-620 colon	µM	>	100
C=CCN(c1cc(O)c2c(c(C)cn2S(=O)(=O)c2ccccc2)c1[N+](=O)[O-])S(C)(=O)=O	SW-620 colon	µM	>	100
C/C(=C\c1csc(C)n1)[C@@H]1C[C@@H]2O[C@]2(C)CCC[C@H](C)[C@H](O)[C@@H](C)C(=O)C(C)(C)[C@@H](O)CC(=O)N1	SW-620 colon	µM	=	0.00042
COC1=CC(=O)C(O)=C(CC2(C)C(C)CCC3(C)C2CCCC3(C)C)C1=O (stereo not drawn)	SW-620 colon	µM	=	30.5
CN(C)c1ccc(/C=N/N=C(\C#N)[S][Sn]([Cl])([c]2ccccc2)[c]2ccccc2)cc1	SW-620 colon	µM	=	2.45

====

As shown below, each of these compounds has a reported TGI value.
Test system: KM12 colon
assay explanation: NCI tumour cell line growth inhibition, 48 h

compound	bound sign	TGI (µM)
Cc1[nH]c(=O)c2oc3cc4ccccc4cc3c2c1C(=O)O	>	10
O=C1NC(=O)N(S(=O)(=O)c2cc(C(=O)Nc3ccc(Cl)cc3)c(Cl)cc2S)S(=O)(=O)N1	=	34.8
CCOC(OCC)(OCC)C(Br)CC (configuration not stated)	>	100
CC1(c2ccc(Cl)cc2)C=C(c2ccc(Cl)cc2)C(C#N)=C(C(C#N)C#N)N1 (configuration not stated)	=	38.6
N#CCC(=O)N/N=C\C(O)C(O)C(O)C(O)CO (configuration not stated)	>	100
CCOC(=O)c1nc2ccc(C(F)(F)F)cc2nc1Oc1ccc(OC)cc1	>	100
CS(=O)(=O)CCC1CCC(=O)O1 (configuration not stated)	>	100
O=C1CSC(c2cc3cc(Br)ccc3nc2Cl)N1c1ccc(Cl)cc1 (configuration not stated)	=	47.6
CC(C)(C)C1CC[C@H]2c3c([nH]c4ccccc34)[C@H]3C(=O)N(c4ccc(F)cc4)C(=O)[C@H]3[C@H]2C1 (some centres not stated)	=	27.8
O=C1/C(=C/c2ccc(Br)s2)NC(=S)N1CN1CCCCC1	>	100
CCN(CC)c1ccc(Cl)c2c1C(O)(C(C)C)C2(C)C (configuration not stated)	=	28.4
O=C(CC1(O)C(=O)Nc2c(Cl)ccc(Cl)c21)c1ccc(Cl)cc1 (configuration not stated)	=	78
O=C1c2ccccc2-c2c1c1c(O)cccc1n2Cc1ccccc1	=	84.9
CCOC(=O)c1c(C)n(-c2ccc(C)cc2)c(=O)c2ccccc2c(=O)c2c(=O)ccc(=O)c1=2	=	30.3
CCCN1C(=O)CN(S(=O)(=O)c2ccc(Cl)cc2)C1=O	>	100
OC[C@H]1C[C@](O)(c2ccc(F)cc2)[C@@H](c2ccc(F)cc2)O1	>	100
COC1=CC(=O)C(O)=C(CC2(C)C(C)CCC3(C)C2CCCC3(C)C)C1=O (configuration not stated)	=	27.3
CN(C)CCCC1(c2ccc(F)cc2)OCc2cc(-c3csc4ccccc34)ccc21 (configuration not stated)	=	3.16
CC(C)CCCC(C)C1CCC2C3CC([N+](=O)[O-])=C4CC(O)CCC4(C)C3CCC12C (configuration not stated)	=	37
COC(=O)c1ccc(CCC2=CC(=O)C=CC2=O)cc1	=	27
Cc1nc2ccc(N=Nc3c(C)noc3C)cc2[nH]1	>	100
COC(=O)C1CC2CC1C1C2SC(F)(F)C1(F)F (configuration not stated)	>	100
